Reference source: ChEMBL document CHEMBL6182847

tested on: Epidermal growth factor receptor (Homo sapiens), P00533 [L858R,T790M,C797S]; settings: dose 500.0 nM
Sequence (P00533 whole entry T790M/C797S/L858R): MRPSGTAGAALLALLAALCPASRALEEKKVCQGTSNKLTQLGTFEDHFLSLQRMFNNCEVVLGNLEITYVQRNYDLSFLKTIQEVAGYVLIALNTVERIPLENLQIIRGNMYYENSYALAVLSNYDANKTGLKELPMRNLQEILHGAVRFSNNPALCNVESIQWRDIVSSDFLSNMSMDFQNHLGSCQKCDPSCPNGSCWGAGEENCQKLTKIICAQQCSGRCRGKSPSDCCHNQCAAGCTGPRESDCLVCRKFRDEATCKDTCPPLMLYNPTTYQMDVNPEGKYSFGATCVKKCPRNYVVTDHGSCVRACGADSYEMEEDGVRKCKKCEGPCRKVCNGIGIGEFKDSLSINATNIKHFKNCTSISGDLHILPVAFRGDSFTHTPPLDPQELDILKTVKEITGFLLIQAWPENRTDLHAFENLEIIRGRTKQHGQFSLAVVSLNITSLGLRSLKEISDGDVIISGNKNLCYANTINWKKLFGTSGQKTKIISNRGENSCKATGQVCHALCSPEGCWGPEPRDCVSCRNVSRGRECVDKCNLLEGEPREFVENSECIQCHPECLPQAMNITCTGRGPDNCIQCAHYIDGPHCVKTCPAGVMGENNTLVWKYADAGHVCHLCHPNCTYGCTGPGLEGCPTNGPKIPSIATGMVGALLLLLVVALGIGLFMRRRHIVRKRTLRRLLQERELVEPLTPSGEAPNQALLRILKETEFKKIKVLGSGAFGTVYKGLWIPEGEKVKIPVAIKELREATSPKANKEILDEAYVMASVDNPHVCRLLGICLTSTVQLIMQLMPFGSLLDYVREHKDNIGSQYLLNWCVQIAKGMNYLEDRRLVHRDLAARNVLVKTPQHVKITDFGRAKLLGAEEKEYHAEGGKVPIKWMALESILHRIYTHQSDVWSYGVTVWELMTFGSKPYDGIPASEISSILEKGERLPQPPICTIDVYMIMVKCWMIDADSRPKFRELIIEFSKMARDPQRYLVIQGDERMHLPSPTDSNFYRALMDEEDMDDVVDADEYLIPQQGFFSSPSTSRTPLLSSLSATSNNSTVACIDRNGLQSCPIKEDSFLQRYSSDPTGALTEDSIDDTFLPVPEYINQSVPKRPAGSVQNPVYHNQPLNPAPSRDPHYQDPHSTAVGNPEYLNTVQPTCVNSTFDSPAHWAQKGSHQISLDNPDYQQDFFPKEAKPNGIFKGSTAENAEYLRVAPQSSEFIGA
Description: Inhibition of EGFR L858R/T790M/C797S mutant (unknown origin) at 500 nM relative to control
test.readout: inhibition (%)
Please state the figure in %; there is no need to write the unit.

Here is how some compounds turned out for inhibition.
>>> print(df.to_string())
                                   molecule  test_readout  reported_measurement
0  C=CC(=O)Nc1cnn(-c2ccnc(Nc3cc(C)c(N4CCC(N5CCN(C)CC5)CC4)cc3OC)n2)c1    inhibition                    80
1  CCS(=O)(=O)Nc1ccccc1-c1ccn(-c2nc(Nc3cc(C)c(N4CCC(N5CCN(C)CC5)CC4)cc3OC)ncc2Br)n1    inhibition                  71.4
2  CCCS(=O)(=O)Nc1cnn(-c2ccnc(Nc3cc(C)c(N4CCC(N5CCN(C)CC5)CC4)cc3OC)n2)c1    inhibition                  89.1

API: the following record is the query input.
## Input Param item = "COc1cc(N2CCC(N3CCN(C)CC3)CC2)c(C)cc1Nc1nccc(-n2cc(NS(=O)(=O)C(C)C)cn2)n1" ; retrieve measured inhibition.
## Output 90.2
